The reported measurements were obtained from ChEMBL document CHEMBL5518184.

Test system: Mycobacterium tuberculosis
Assay: Inhibition of Mycobacterium tuberculosis salicylate synthase expressed in Escherichia coli BL21 cells using chorismic acid as substrate assessed as residual activity at 100 uM by fluorimetric assay relative to control
Consider the cut-off 70%. If the recorded Activity is strictly smaller, the label is Yes; if not, the label is No.

| input smiles | category |
| --- | --- |
| CS(=O)(=O)c1cccc(-c2ccc(C(=O)O)o2)c1 | Yes |
| Nc1cccc(-c2ccc(C(=O)O)o2)c1 | Yes |
| CNC(=O)c1cccc(-c2ccc(C(=O)O)o2)c1 | No |
| NC(=O)c1cccc(-c2ccc(C(=O)O)o2)c1 | Yes |
| O=C(O)c1ccc(-c2cccc(C(F)(F)F)c2)o1 | Yes |
| NS(=O)(=O)c1cccc(-c2ccc(C(=O)O)o2)c1 | Yes |
| O=C(O)c1cccc(-c2ccc(C(=O)O)o2)c1 | Yes |
| O=C(O)c1ccc(-c2cccc(Cl)c2)o1 | No |
| Cc1cccc(-c2ccc(C(=O)O)o2)c1 | No |
| N#Cc1cccc(-c2ccc(C(=O)O)o2)c1 | Yes |
